experiment notes: growth suppression of yeast trafficking mutant, preliminary HTS, modulators of trafficking downstream of Golgi apparatus project, 1536-format plate, OD 615 nm (AID 637)
condition parameters: yeast transport mutant growth, absorbance 615 nm, 18 h; stronger effect = higher value
Activity calls are given as the source filed them. No stated cut-off is given here; in the data, active means inhibition above about 30%; inactive means the rest.
# inhibition per entry

compound | inhibition
CC1=C(C#N)C(=O)NC(C)(C)C1 | 1.8% (inactive)
CCN1CCN(C(c2ccc(F)cc2)c2nnnn2Cc2cccs2)CC1 (centres undefined) | -0.17% (inactive)
CN(C(=O)c1ccno1)c1nnc(-c2cnccn2)s1 | 1.83% (inactive)
Cc1ccc(O)c(NC(=O)COc2cc(C)ccc2C)c1 | -10.3% (inactive)
CCC(Oc1ccc2ccccc2c1)C(=O)O (centres undefined) | 1.15% (inactive)
CCCC(=O)N=C1SC2CS(=O)(=O)CC2N1c1ccc(CC)cc1 (centres undefined) | 3.61% (inactive)
S=C(c1ccc(-c2cc(Cl)ccc2Cl)o1)N1CCOCC1 | 5.16% (inactive)
O=C(O)c1cc(/C=N\O)ccc1OCc1ccccc1 | 1.29% (inactive)
COc1ccccc1NC(=O)NC1(C(=O)N2CCC(O)CC2)CCCCC1 | -4.13% (inactive)
Cc1cccc(NC(=O)COc2ccc(Br)cc2)n1 | 11% (inactive)
O=C(CSc1nnnn1Cc1ccccc1)Nc1ccc2c(c1)OCO2 | -3.17% (inactive)
O=C1CC(c2cccc(Cl)c2)CC(O)=C1C=NCCCO (centres undefined) | -0.33% (inactive)
Cc1ccc(NC(=O)c2cc(S(=O)(=O)N3CCC4(CC3)OCCO4)ccc2F)cc1 | -11% (inactive)
CCC(=O)c1ccc(OC(=O)c2ccc(Br)o2)cc1 | 8.2% (inactive)
COc1cc(-c2nnc(SCC(=O)c3cc(C)n(CC4CCCO4)c3C)o2)cc(OC)c1OC (centres undefined) | -4.83% (inactive)
COc1ccccc1OCCCCNCCO | -7.83% (inactive)
O=C(CCn1c(=S)[nH]c2ccccc2c1=O)NCC1CCCO1 (centres undefined) | 0.66% (inactive)
O=C(O)CCc1ccc(-c2ccc(F)cc2)n1CC(=O)O | -1.43% (inactive)
C=CCOc1ccc(/C(O)=C2\C(=O)C(=O)N(CCOC)C2c2cccnc2)cc1 (centres undefined) | 1.17% (inactive)
CN(CC(=O)N1CCN(c2ccc(F)cc2)CC1)S(=O)(=O)c1ccc(F)cc1 | 5.25% (inactive)
CC1CCN(S(=O)(=O)c2ccc(S(=O)(=O)NCC(=O)C(C)(C)C)cc2)CC1 | -8.23% (inactive)
COc1ccccc1C(=O)n1nc(-c2ccccc2)nc1N | 3.77% (inactive)
CCCn1c(=O)c2ccccc2n2c(SCc3cc(=O)n4ccsc4n3)nnc12 | -12.1% (inactive)
COc1cc(C2C(C#N)=C(N)OC3=C2C(=O)CCC3)ccc1OC(=O)N1CCOCC1 (centres undefined) | -0.66% (inactive)
CCC(C)N=C1SCC(C)(/C=N/O)S1 (centres undefined) | -0.98% (inactive)
CN1CCN(c2oc(COc3ccc(-c4ccccc4)cc3)nc2C#N)CC1 | 0.79% (inactive)
Cc1ccc(C)c(N(CC(=O)NCc2ccco2)C(=O)CCC(=O)Nc2ccccn2)c1 | -1.43% (inactive)
COc1ccc(-n2ncc3c(=O)n(CC(=O)OCc4ccccc4)cnc32)cc1 | 0.5% (inactive)
C/C(=N\O)C(=O)NCCCNCCCN(C)C | 0.48% (inactive)
CCCCNC(=O)c1c(C)cc(=O)oc1C | -1.45% (inactive)
O=C(CSCCSCC(=O)c1ccco1)c1ccco1 | 8.85% (inactive)
O=C(NCCN1CCOCC1)c1csc2c1CCCC2 | -1.83% (inactive)
CN(C)CCCNC(=O)c1ccc(CN(c2ccccc2)S(C)(=O)=O)cc1 | -7.87% (inactive)
CCN1C(=O)c2cccc3c(NC(=O)c4ccc5c(c4)OCCO5)ccc1c23 | 0.63% (inactive)
CCC(Sc1ccc2nnc(-c3ccc(F)cc3)n2n1)C(=O)OC (centres undefined) | 2.5% (inactive)
CCCN1CCC(NC(=O)Nc2ccc(OC)c(OC)c2)CC1 | -2.33% (inactive)
CCC(C)OC(=O)n1ccc(C(=O)Nc2nccs2)n1 (centres undefined) | -4.19% (inactive)
Cc1cccc(C(OC(=O)c2ccco2)C(=O)NCc2ccccc2)n1 (centres undefined) | -1.64% (inactive)
C=CCn1c(SCC(=O)c2cc(C)n(C(C)COC)c2C)nc2sc(C)c(C)c2c1=O (centres undefined) | -4.6% (inactive)
CCc1ccc(C2CC(c3ccccc3)n3ncnc3N2)cc1 (centres undefined) | 0.67% (inactive)
COC(=O)c1cc(-c2c(C)oc3cc(O)ccc3c2=O)c(C)o1 | -1.27% (inactive)
c1ccc(N2CCN(Cc3ccnc4ccccc34)CC2)cc1 | -0.82% (inactive)
C=CCn1c(SCC2=C(C(=O)OCC)C(C)NC(=O)N2)nnc1C1CCCCC1 (centres undefined) | -0.98% (inactive)
Cc1cc(=O)n(-c2ccc3ccccc3n2)[nH]1 | 11.1% (inactive)
